Test system: Streptococcus salivarius
Assay: growth AUC relative to DMSO control (median of replicates) (fraction); higher = more growth (less inhibition), active = hit call of the paper
Conditions: 20 µM; 24 h
Classification field: yes (1) = growth AUC at or over 1; no (0) = growth AUC under 1.

molecule | classAssignment
[Cl][Sn]([c]1ccccc1)([c]1ccccc1)[c]1ccccc1 | no (0)
Oc1ccc(Cl)cc1Cl | no (0)
CON(C)C(=O)Nc1ccc(Cl)cc1 | yes (1)
COP(=O)(OC)OC1=C(Cl)C2C=CCC12 (stereo unspecified) | yes (1)
CCOP(=S)(OCC)Oc1ccc(S(C)=O)cc1 (stereo unspecified) | yes (1)
CCCCCCCCCCCCC1=C(OC(C)=O)C(=O)c2ccccc2C1=O | no (0)
O=P(OCCCl)(OCCCl)OCCCl | yes (1)
CNC(=O)O/N=C(\C)C(C)S(C)=O (stereo unspecified) | no (0)
CCOP(=O)(NC(C)C)Oc1ccc(S(C)=O)c(C)c1 (stereo unspecified) | yes (1)
CCC(C)c1ccccc1OC(=O)NC (stereo unspecified) | yes (1)
